- study-target: T1, human a-PD-L1 Fc (Sino Biological, 10084-H02H, LC11NO2402) (human, UniProt Q9NZQ7 19-239)
- T1 construct: Bought Fc fusion immobilised on the SPR chip; Printed as 'a-PD-L1 Fc' but used as the antigen (ligand) for the anti-PD-L1 scFvs; also called Human PD-L1; not shown: Fc part
- T1 sequence (Q9NZQ7 19-239 limits assumed): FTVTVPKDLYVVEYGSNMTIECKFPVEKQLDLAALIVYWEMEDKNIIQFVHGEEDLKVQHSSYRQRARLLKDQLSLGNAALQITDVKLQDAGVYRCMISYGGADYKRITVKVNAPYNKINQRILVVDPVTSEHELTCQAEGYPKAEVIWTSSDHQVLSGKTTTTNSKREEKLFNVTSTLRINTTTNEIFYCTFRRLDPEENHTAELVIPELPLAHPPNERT
- procedure-text: SPR, PD-L1 Fc immobilised, scFv analyte, 1:1 fit
assay-metric: n-fold to wt (fold)

- binder: "PRO2949 (scFv 37-20-B03-sc09.1_(T146E)) (scFv, PRO2230 variant; VH substitution, AHo numbering; also called PRO2230 T146E) scFv: DIQMTQSPASLSASVGDRVTITCQASQSIGTYLAWYQQKPGKPPKLLIYRAFILASGVPSRFSGSGSGTDFTLTISSLQPEDFATYYCQSNFYSDSTTIGPNAFGTGTKVTVLGGGGGSGGGGSGGGGSGGGGSEVQLVESGGGLVQPGGSLRLSCAASGFSFNSDYWIYWVRQAPGKGLEWIASIYGGSSGNTQYASWAQGRFTISRDNSKNTVYLQMNSLRAEDTAVYFCARGYVDYGGATDLWGQGTLVEVSS"
  assay-value: 1.1
- binder: "PRO3308 (scFv 37-20-B03-sc09.1_(L12A, T101S, L144K, T146Q)) (scFv, PRO2230 variant; VH substitutions, AHo numbering; also called PRO2230 L12A-T101S-L144K-T146Q) scFv: DIQMTQSPASLSASVGDRVTITCQASQSIGTYLAWYQQKPGKPPKLLIYRAFILASGVPSRFSGSGSGTDFTLTISSLQPEDFATYYCQSNFYSDSTTIGPNAFGTGTKVTVLGGGGGSGGGGSGGGGSGGGGSEVQLVESGGGAVQPGGSLRLSCAASGFSFNSDYWIYWVRQAPGKGLEWIASIYGGSSGNTQYASWAQGRFTISRDNSKNTVYLQMNSLRAEDSAVYFCARGYVDYGGATDLWGQGTKVQVSS"
  assay-value: 0.7
- binder: "PRO2230 (scFv 37-20-B03-sc09.1) (scFv, also called PRO2230 wt; a-PD-L1 wt) scFv: DIQMTQSPASLSASVGDRVTITCQASQSIGTYLAWYQQKPGKPPKLLIYRAFILASGVPSRFSGSGSGTDFTLTISSLQPEDFATYYCQSNFYSDSTTIGPNAFGTGTKVTVLGGGGGSGGGGSGGGGSGGGGSEVQLVESGGGLVQPGGSLRLSCAASGFSFNSDYWIYWVRQAPGKGLEWIASIYGGSSGNTQYASWAQGRFTISRDNSKNTVYLQMNSLRAEDTAVYFCARGYVDYGGATDLWGQGTLVTVSS"
  assay-value: 1
